These measurements were taken from patent US20160122389A1.

Molecular target: CXC chemokine receptor 4 (CXCR4) (human, UniProt P61073 1-352)
Sequence (P61073 whole entry): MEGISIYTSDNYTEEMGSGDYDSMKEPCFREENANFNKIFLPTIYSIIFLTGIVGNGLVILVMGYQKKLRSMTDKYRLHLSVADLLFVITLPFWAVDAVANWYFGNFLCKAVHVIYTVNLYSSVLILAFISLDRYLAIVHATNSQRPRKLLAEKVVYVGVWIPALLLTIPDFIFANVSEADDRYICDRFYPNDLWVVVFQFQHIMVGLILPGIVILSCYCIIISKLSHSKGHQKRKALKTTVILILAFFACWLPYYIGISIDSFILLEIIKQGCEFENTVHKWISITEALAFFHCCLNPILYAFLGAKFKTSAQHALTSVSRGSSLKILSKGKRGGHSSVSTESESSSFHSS
Test: cell-based or functional assay
No end group written: not given here.
Parameter: IC50 (µM), blocking of X4 tropic HIV-1 NL4-3 infection. Scope: all listed entries.
Reply with just the number (in µM).

See these solved cases before continuing.
binder | measuredValue
LARYTKKV [408-415-V409A] | 32.9
IVRYTKKVPQVS [408I-419] | 2.48
IVRYSKKVPQC (also: homodimer, disulfide between Cys of the two monomers) [408I-418 SC x2] | 0.39
LLVRYTKKVPQVS [407-419] | 11.1

Query: Request the reported IC50 (µM), blocking of X4 tropic HIV-1 NL4-3 infection associated with IVRWSKKVCQVS [408I-419 WSC03]
Result: 1.51
